# target-or-system: d-enCas12a-Ultra (Acidaminococcus sp., UniProt U2UMQ6 1-1307, E174R;S542R;K548R;M537R;F870L;D908A;E993A;D1235A)
# method: Spec-seq (native PAGE EMSA with sequencing of bound and unbound); 25 mM Tris-HCl pH 7.4, 150 mM KCl, 5 mM MgCl2, 10% glycerol, 1 mM DTT, 40 ng/uL salmon sperm DNA; 400 nM Cas12a, 480 nM crRNA, 50 nM library, 37 C 1 h; native PAGE at room temperature; high values mean tight binding;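 further: relative affinity from the bound to unbound sequence frequency ratio in Spec-seq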
# measurement-context: protein: recombinant
Let's look at some binders and their measured binding signal.
Lab book: enter the figure in lnKA, no units written.

Look over these answered cases.
{"binder": "GACC (dsDNA) DNA 1: GCTATCTAGTGCTCAGTACGCACTGGACCAGGAAACTTCTGGCAGGACCAGGTCATGAGATCGGAAGAGCACACGTCTGAACTCCAGTCA DNA 2: TGACTGGAGTTCAGACGTGTGCTCTTCCGATCTCATGACCTGGTCCTGCCAGAAGTTTCCTGGTCCAGTGCGTACTGAGCACTAGATAGC RNA: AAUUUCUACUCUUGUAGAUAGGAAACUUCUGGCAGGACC", "recorded-metric": "binding signal", "recorded-number": -1.34}
{"binder": "GCTA (dsDNA) DNA 1: GCTATCTAGTGCTCAGTACGCACTGGCTAAGGAAACTTCTGGCAGGACCAGGTCATGAGATCGGAAGAGCACACGTCTGAACTCCAGTCA DNA 2: TGACTGGAGTTCAGACGTGTGCTCTTCCGATCTCATGACCTGGTCCTGCCAGAAGTTTCCTTAGCCAGTGCGTACTGAGCACTAGATAGC RNA: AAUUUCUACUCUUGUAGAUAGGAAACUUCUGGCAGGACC", "recorded-metric": "binding signal", "recorded-number": -1.62}

Attention now turns to another entry.
I am curious: what binding signal value has been reported for CGGG (dsDNA) DNA 1: GCTATCTAGTGCTCAGTACGCACTGCGGGAGGAAACTTCTGGCAGGACCAGGTCATGAGATCGGAAGAGCACACGTCTGAACTCCAGTCA DNA 2: TGACTGGAGTTCAGACGTGTGCTCTTCCGATCTCATGACCTGGTCCTGCCAGAAGTTTCCTCCCGCAGTGCGTACTGAGCACTAGATAGC RNA: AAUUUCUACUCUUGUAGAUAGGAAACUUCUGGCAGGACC ?
-3.42
